Test: P-glycoprotein substrates identified in KB-8-5-11 adenocarcinoma cell line, qHTS therapeutic library screen (AID 1346987); further: nearly all actives have a fitted effect of over 65% in size
Details: KB-8-5-11 (P-gp overexpressing) viability, CellTiter-Glo, 72 h; series mostly up to 44.5 µM
Inconclusive results are not listed. Calls of active or inactive are those of the source. The call rests on the fitted dose curve; in most records, active means well fitted inhibition curve with a large enough effect; inconclusive means small, poorly fitted or top-dose-only effect; inactive means flat fitted curve, though single readings scatter. *1 amine or outer side, *2 acyl side, *3 side chain or, on linkers, in order; H or OH if unused. Where a SMILES comes first, the peptide text is derived from it. [ ]: non-standard residue; d: D form. X5 = CC(CC(O[*:1])C(=O)[*:2])C(=O)O; NMeV = CN[CH](C(=O)O)C(C)C; NMeA = CN[CH](C)C(=O)O; βAla = NCCC(=O)O
Outcome field: choose from active, inactive

compound: CN[C@@H]1C[C@H]2O[C@@](C)([C@@H]1OC)n1c3ccccc3c3c4c(c5c6ccccc6n2c5c31)C(=O)NC4
cat: active

compound: CCC(C)C1NC(=O)C2CCCN2C(=O)C(CC(C)C(=O)O)OC(=O)CCNC(=O)C(C)N(C)C(=O)C(C(C)C)N(C)C1=O (stereo not drawn) (cyclo([X5]PI[NMeV][NMeA][βAla]); configuration not given here)
cat: inactive

In: Test call for this compound, please: `C/C=C(\CC)C(=O)NC(N)=O`
Out: inactive

====

Assay: qHTS for Inhibitors of the Functional Ribonucleoprotein Complex (vRNP) of Lassa (LASV) Arenavirus: LASV Primary Screen - GLuc reporter signal (AID 1347082); further: nearly all actives have a fitted effect of over 60% in size
Conditions: LASV minigenome vRNP, Gaussia luciferase reporter; series mostly up to 57.5 µM
Records with an inconclusive call do not appear. The source made the active and inactive calls. The call rests on the fitted dose curve; tested in HEK293 reporter line.
Outcome field: choose from YES = active, NO = inactive

compound: C[C@]1(CC/C(=C/CO)CO)[C@H](CO)CC[C@@]23COC(=O)C2=CCC[C@@H]31
cat: NO

compound: O=C(O)c1ccccc1Nc1cccc(OCc2ccc3ccccc3n2)c1
cat: NO

compound: COc1cc2cc(Oc3ccc4ccc(=O)oc4c3)c(=O)oc2cc1OC1OC(COC(=O)CC(C)(O)CC(=O)O)C(O)C(O)C1O (centres undefined)
cat: NO

compound: COc1cc2c3cc1Oc1c(OC)c(OC)cc4c1[C@H](Cc1ccc(cc1)Oc1cc(ccc1O)C[C@H]3N(C)CC2)N(C)CC4
cat: NO

compound: CCN(CC)CCNC(=O)c1c(C)[nH]c(C=C2C(=O)Nc3ccc(F)cc32)c1C
cat: YES

In: Test call for this compound, please: `COC(=O)/C=C/c1ccccc1`
Out: NO

In: Test call for this compound, please: `CC(C)=CCC/C(C)=C/C(=O)O`
Out: NO

In: Test call for this compound, please: CC1=C(O)C(=O)OC1C (centres undefined)
Out: NO

In: Test call for this compound, please: C#CCCC[C@@H]1OC(=O)CNC(=O)C([C@@H](C)CC)NC(=O)[C@@H]2CCCN2C(=O)C([C@@H](C)CC)OC(=O)[C@H](Cc2ccccc2)N(C)C(=O)[C@H](C(C)C)NC(=O)C1(C)C (some centres undefined)
Out: NO

====

Assay: qHTS for Inhibitors of the Functional Ribonucleoprotein Complex (vRNP) of Lassa (LASV) Arenavirus: Viability assay - alamar blue signal for LASV Primary Screen (AID 1347083); further: nearly all actives have a fitted effect of over 80% in size
Conditions: cell viability, alamar blue fluorescence (LASV minigenome counter-screen); series mostly up to 57.5 µM
Records with an inconclusive call do not appear. The source made the active and inactive calls. The call rests on the fitted dose curve; tested in HEK293 reporter line.
Outcome field: choose from y (active), n (inactive)

Past entries and their recorded results:
compound: CSC(=S)NCc1c[nH]c2ccccc12
cat: n
--
compound: CC(=O)O[C@@H]1/C=C/[C@](C)(O)C[C@@H](C)C/C=C/[C@H]2[C@H](O)C(C)=C(C)[C@H]3[C@H](Cc4ccccc4)NC(=O)[C@@]123
cat: y
--
compound: COC(=O)c1ccc2c(c1O)C(=O)c1ccccc1C2=O
cat: n
--
compound: COc1ccc(CCNC(=O)/C=C\c2ccccc2)cc1OC
cat: n

In: Test call for this compound, please: `CCNC(=O)Nc1ccc2ncc(Nc3ccc(C)cc3)nc2n1`
Out: y

In: Test call for this compound, please: `CC1=CCC[C@H]2[C@H](C1)C(=O)C[C@@H](C)[C@]2(C)CC/C(=C/CO)CO`
Out: n

In: Test call for this compound, please: `O=C1NCCc2[nH]c(-c3ccncc3)cc21`
Out: y

In: Test call for this compound, please: CC(=O)OC1[C@H](Oc2c(O)c(C)c3c4c2[C@@H](C)CC[C@@H]4[C@@H](C)C[C@@H]3C=C(C)C)OC[C@@H](O)[C@@H]1O (stereo partly specified)
Out: n

In: Test call for this compound, please: `Cc1ccccc1O`
Out: n

In: Test call for this compound, please: `CCCCN`
Out: n

In: Test call for this compound, please: c1ccc(C2CN3CCSC3=N2)cc1 (stereo unspecified)
Out: n

The measurements presented in this section are drawn from PubChem BioAssay (NCATS).
